What inhibition was measured for each of the following?
Target: Uracil-DNA glycosylase (Homo sapiens) (UniProt P13051);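 note: UNG excision on a quenched double-stranded DNA oligo probe, with APE1 added for strand incision and turnover, read as fluorescence at 594 nm as strands separate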
Sequence (P13051 whole entry): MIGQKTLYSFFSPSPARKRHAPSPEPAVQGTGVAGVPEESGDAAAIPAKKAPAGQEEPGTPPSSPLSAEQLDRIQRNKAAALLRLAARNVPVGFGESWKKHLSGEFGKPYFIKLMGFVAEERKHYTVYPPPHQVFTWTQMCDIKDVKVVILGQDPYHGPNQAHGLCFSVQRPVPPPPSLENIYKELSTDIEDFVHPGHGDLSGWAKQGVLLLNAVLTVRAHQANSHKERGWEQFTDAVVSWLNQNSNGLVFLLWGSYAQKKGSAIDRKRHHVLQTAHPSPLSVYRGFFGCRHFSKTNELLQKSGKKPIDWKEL
Conditions: Compound Concentration 10.0 uM, Hit No
Where a SMILES comes first, the peptide text is derived from it. [ ]: non-standard residue; d: D form. Arg(Me) = CNC(=N)NCCC[C@H](N)C(=O)O; d3Pal = N[C@H](Cc1cccnc1)C(=O)O; azaGly = NNC(=O)O
Give bare numbers, in %.

Answered examples (4):
N[C@@]1(C(=O)O)CO[C@H]2[C@H](C(=O)O)[C@H]21	-8.59
COc1cc(Nc2ccnc3ccc(Br)cc23)cc(OC)c1OC	12.8
CCOP(=O)(OCC)C(=Cc1cc(C(C)(C)C)c(O)c(C(C)(C)C)c1)P(=O)(OCC)OCC	-4.58
CNC(=N)NCCC[C@H](NC(=O)[C@H](CC(C)C)NC(=O)NNC(=O)[C@H](Cc1ccccc1)NC(=O)[C@H](CO)NC(=O)[C@H](CC(N)=O)NC(=O)[C@@H](Cc1cccnc1)NC(=O)[C@H](N)Cc1ccc(O)cc1)C(=O)NCC(N)=O (H-[dY][d3Pal]NSF[azaGly]L[Arg(Me)]G-NH2)	7.1

// batch mode: one inhibition value per listed entry
1. CCCCN(Cc1ccccc1)C(=O)c1ccc(S(=O)(=O)Nc2ccccc2)cc1
2. COc1ccc2c(O[C@@H]3C[C@H]4C(=O)N[C@]5(C(=O)O)CC5/C=C\CCCCC[C@H](NC(=O)OC5CCCC5)C(=O)N4C3)cc(-c3csc(NC(=O)C(C)C)n3)nc2c1C (some centres not stated)
3. c1ccc2nc(N3CCNCC3)ccc2c1

Completion:
[2.05, 5.79, 1.1]
